Here, each record is paired with measured koff data.
# target-of-assay: T1, CD3-specific binding domain (SEQ ID NO: 3) (biotinylated when used as immobilized SPR ligand (site not stated))
# T1 construct: also called α-CD3 DARPin
# T1 chain: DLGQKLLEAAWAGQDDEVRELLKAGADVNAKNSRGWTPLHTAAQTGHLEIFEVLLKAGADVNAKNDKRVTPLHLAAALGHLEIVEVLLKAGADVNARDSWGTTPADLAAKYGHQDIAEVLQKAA
# assay-summary: SPR (ProteOn), biotinylated CD3-specific binding domain immobilized, multi-trace 50-0.195 nM, 25 C
measured-endpoint: koff

| binder | measured-endpoint | reported-result |
| --- | --- | --- |
| 2-in-1 DARPin 19 (SEQ ID NO: 12) (designed binder, N4C mono-domain; purified by its His-tag) DLDKKLLEAARAGQDDEVRILLKAGADVNAKDSTGWTPLHLAAPWGHPEIVEVLLKAGADVNAKDFKGWTPLHLAAAAGHLEIVEVLLKAGADVNAKDVYGWTPLHLAAAAGHLEIVEVLLKAGADVNAKDWLGWTPLHLAASHGHLEIVEVLLKAGADVNAQDKSGKTPADLAARAGHQDIAEVLQKAA | koff | 0.0002 s⁻¹ |
| 2-in-1 DARPin 13 (SEQ ID NO: 8) (designed binder, N3C mono-domain; purified by its His-tag) DLDKKLLEAARAGQDDEVRILLKAGADVNAKDSTGWTPLHLAAPWGHPEIVEVLLKAGADVNAKDFYGWTPLHLAAAAGHLEIVEVLLKAGADVNAKDWLGWTPLHLAASHGHLEIVEVLLKAGADVNAQDKSGKTPADLAARAGHQDIAEVLQKAA | koff | 0.008 s⁻¹ |
